Measurement record for UniProt:P14416; quantity recorded: Ki.
Sequence (P14416 whole entry): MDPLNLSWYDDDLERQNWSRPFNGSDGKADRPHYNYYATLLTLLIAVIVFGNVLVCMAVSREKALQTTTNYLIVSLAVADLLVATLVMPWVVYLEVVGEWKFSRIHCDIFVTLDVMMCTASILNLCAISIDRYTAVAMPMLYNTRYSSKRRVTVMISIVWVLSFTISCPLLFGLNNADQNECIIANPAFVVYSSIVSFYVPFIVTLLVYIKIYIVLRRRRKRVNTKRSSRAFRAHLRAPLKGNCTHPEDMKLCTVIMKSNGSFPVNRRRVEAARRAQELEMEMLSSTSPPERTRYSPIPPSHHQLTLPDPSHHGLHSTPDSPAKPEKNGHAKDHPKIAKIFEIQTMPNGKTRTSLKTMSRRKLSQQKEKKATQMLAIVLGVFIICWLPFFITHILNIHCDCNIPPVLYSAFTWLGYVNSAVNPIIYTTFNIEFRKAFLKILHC
reported-property: Ki (nM)

Use these answered entries as a reference point.
N#Cc1ccccc1N1CCN(CC(O)CN2C(=O)NC(c3ccccc3)(c3ccccc3)C2=O)CC1 (racemic) = 534
COc1ccccc1N1CCN(CC(O)CN2C(=O)NC(C)(c3ccc(C)cc3)C2=O)CC1 (racemic) = 876
COc1ccccc1N1CCN(CC(O)CN2C(=O)NC(C)(c3ccc(Cl)cc3)C2=O)CC1.Cl (racemic) = 366
CC1(c2ccc(Br)cc2)NC(=O)N(CC(O)CN2CCN(c3ccccc3C#N)CC2)C1=O.Cl (racemic) = 506
COc1ccccc1N1CCN(CC(O)CN2C(=O)NC(C)(c3ccc(Br)cc3)C2=O)CC1.Cl (racemic) = 267
CC1(c2ccc(Cl)cc2)NC(=O)N(CC(O)CN2CCN(C(c3ccccc3)c3ccccc3)CC2)C1=O.Cl (racemic) = 601

1. COc1ccccc1N1CCN(CC(O)CN2C(=O)NC(c3ccccc3)(c3ccccc3)C2=O)CC1 (racemic)
2. CC1(c2ccc(Cl)cc2)NC(=O)N(CC(O)CN2CCN(c3ccccc3C#N)CC2)C1=O.Cl (racemic)
Request: // task: argmin of Ki over [ 1 , 2 ] Respond using the label that marks the chosen record.
Response: 1
(1: 497 nM, 2: 1280 nM)

* * *

Ki values for the molecules below.
biological target: Adrenergic receptor alpha-2 (Rattus norvegicus, UniProt P22086+P19328+P22909); assay: Displacement of [3H]-clonidine from alpha2-adrenergic receptor in rat brain cortex after 30 mins by Microbeta scintillation counting method

Use these answered entries as a reference point.
COc1ccccc1N1CCN(CC(O)CN2C(=O)NC(C)(c3ccc(Cl)cc3)C2=O)CC1.Cl (racemic) = > 10 µM
COc1ccccc1N1CCN(CC(O)CN2C(=O)NC(C)(c3ccc(Br)cc3)C2=O)CC1.Cl (racemic) = > 5 µM
CC1(c2ccc(Cl)cc2)NC(=O)N(CC(O)CN2CCN(C(c3ccccc3)c3ccccc3)CC2)C1=O.Cl (racemic) = > 10 µM
CCOc1ccccc1N1CCN(CC(O)CN2C(=O)NC(C)(c3ccccc3)C2=O)CC1.Cl (racemic) = > 5 µM
CC1(c2ccc(Br)cc2)NC(=O)N(CC(O)CN2CCN(c3ccccc3C#N)CC2)C1=O.Cl (racemic) = > 5 µM

Here is another molecule to look at.
Request: Which Ki is reported for this molecule? CC1(c2ccc(Cl)cc2)NC(=O)N(CC(O)CN2CCN(c3ccccc3C#N)CC2)C1=O.Cl (racemic)
Response: > 10 µM

* * *

molecular target: Adrenergic receptor alpha-1 (Rattus norvegicus, UniProt P15823+P23944+P43140); assay: Displacement of [3H]-prazosin from alpha1-adrenergic receptor in rat brain cortex after 30 mins by Microbeta scintillation counting method
reported-property: Ki (nM)

CC1(c2ccc(Br)cc2)NC(=O)N(CC(O)CN2CCN(c3ccccc3C#N)CC2)C1=O.Cl (racemic) = 200

A. COc1ccccc1N1CCN(CC(O)CN2C(=O)NC(C)(c3ccc(Br)cc3)C2=O)CC1.Cl (racemic)
B. CC1(c2ccc(Cl)cc2)NC(=O)N(CC(O)CN2CCN(C(c3ccccc3)c3ccccc3)CC2)C1=O.Cl (racemic)
C. CC1(c2ccccc2)NC(=O)N(CC(O)CN2CCN(c3ccccc3C#N)CC2)C1=O.Cl (racemic)
Request: Would you mind ranking these compounds by ascending Ki? Response field: labels, in requested order.
Response: A, C, B
(A: 167 nM, C: 278 nM, B: 530 nM)

Data credit: ChEMBL document CHEMBL4145534
